test system: ALPK1-dependent NFκB reporter gene activation in HEK293 cells stably expressing an NF-kB reporter (G9 cells); test: NFκB gene reporter alkaline phosphatase assay; assay type: cell-based; conditions: Homo sapiens, HEK293; read-out: NFkB assay IC50
Endpoint: log10 of IC50 (log10 of the value in µM)

- Molecule: "C#CC(C)(c1ccc(Cl)cc1)c1csc(NC(=O)N2CC(N3CCNCC3)C2)n1 (stereo not drawn)"
  log10 of IC50: -0.29
- Molecule: "C#C[C@@](C)(c1ccc(Cl)cc1)c1csc(NC(=O)NC[C@H](O)CO)n1"
  log10 of IC50: -0.28
- Molecule: "CC(C)(c1ccc(Br)cc1)c1csc(NC(=O)NCc2ccc(N3CCNCC3)c(C(N)=O)c2)n1"
  log10 of IC50: 0.29
- Molecule: "CC(C)(c1ccc(Br)cc1)c1csc(NC(=O)NCc2ccc(C(N)=O)cc2)n1"
  log10 of IC50: -0.15
- Molecule: "C#C[C@@](C)(c1ccc(F)cc1)c1csc(NC(=O)NCCO)n1"
  log10 of IC50: 0.23
- Molecule: "CC(C)(c1ccc(Br)cc1)c1csc(NC(=O)NCc2ccc(N3CCC(O)C3)cc2)n1 (stereo not drawn)"
  log10 of IC50: 0.50
- Molecule: "CC(C)(c1ccc(Br)cc1)c1csc(NC(=O)NCc2ccc(N3CCNCC3)c(Br)c2)n1"
  log10 of IC50: 0.15
- Molecule: "CC(C)(c1ccc(Br)cc1)c1csc(NC(=O)NCc2ccc(N3CCNCC3)c(F)c2)n1"
  log10 of IC50: 0.08
- Molecule: "CC(C)(c1ccc(Br)cc1)c1csc(NC(=O)NCCS(N)(=O)=O)n1"
  log10 of IC50: -0.03
- Molecule: "CC(C)(c1ccc(Br)cc1)c1csc(NC(=O)NCCN)n1"
  log10 of IC50: 0.62
- Molecule: "C#CC(C)(c1ccc(Br)cc1)c1csc(NC(=O)NCC2(O)CCNCC2)n1 (stereo not drawn)"
  log10 of IC50: 1.43
- Molecule: "COc1ccc(C(C)(C)c2csc(NC(=O)NCc3ccc(N4CCC(N(C)C)C4)nc3)n2)cc1 (stereo not drawn)"
  log10 of IC50: 0.14
- Molecule: "C#C[C@](C)(c1ccc(F)cc1)c1csc(NC(=O)NCCS(N)(=O)=O)n1"
  log10 of IC50: 0.41
- Molecule: "C#CC(C)(c1ccc(Cl)cc1)c1csc(NC(=O)NCCC#N)n1 (stereo not drawn)"
  log10 of IC50: 0.10
- Molecule: "COc1ccc(C(C)(C)c2csc(NC(=O)NCc3ccc(C4CCNCC4)c(F)c3)n2)cc1"
  log10 of IC50: -0.14
- Molecule: "CC(C)(c1ccc(C2CC2)cc1)c1csc(NC(=O)NCc2ccc(N3CCNCC3)cc2)n1"
  log10 of IC50: 0.93
- Molecule: "CC(C)(c1ccc(Br)cc1)c1csc(NC(=O)NC(CO)c2ccc(N3CCNCC3)cc2)n1 (stereo not drawn)"
  log10 of IC50: 0.22
- Molecule: "C#CC(C)(c1ccc(Br)cc1)c1csc(NC(=O)NCCCO)n1 (stereo not drawn)"
  log10 of IC50: -0.42
- Molecule: "O=C(NCc1ccc(N2CCNCC2)cc1)Nc1nc(C2(c3ccc(Br)cc3)CCCC2)cs1"
  log10 of IC50: 0.03
- Molecule: "C#CC(C)(c1ccc(Cl)cc1)c1csc(NC(=O)N2CCC(O)CC2)n1 (stereo not drawn)"
  log10 of IC50: 0.50
- Molecule: "CNC(=O)c1cc(CNC(=O)Nc2nc(C(C)(C)c3ccc(OC)cc3)cs2)ccc1N1CCNCC1"
  log10 of IC50: 0.65
- Molecule: "CCN(CC)CCCNC(=O)Nc1nc(C(C)(C)c2ccc(OC)cc2)cs1"
  log10 of IC50: 0.49
- Molecule: "C#C[C@](C)(c1ccc(Br)cc1)c1csc(NC(=O)NCC(O)CO)n1 (stereo in doubt)"
  log10 of IC50: 0.09
- Molecule: "C#C[C@](C)(c1ccc(Cl)cc1)c1csc(NC(=O)N2CC(CN3CCNCC3)C2)n1 (stereo in doubt)"
  log10 of IC50: 0.22
- Molecule: "C#CC(C)(c1ccc(Br)cc1)c1csc(NC(=O)NCCO)n1 (stereo not drawn)"
  log10 of IC50: -0.31
- Molecule: "CC(C)(c1ccc(Br)cc1)c1csc(NC(=O)NCc2ccc(NCCN)c(F)c2)n1"
  log10 of IC50: 0.12
- Molecule: "CC(C)(c1ccc(Br)cc1)c1csc(NC(=O)NCc2ccc(OCCN3CCNCC3)cc2)n1"
  log10 of IC50: -0.14
